# Tested on: rodent lifetime carcinogenesis bioassay, tumor incidence TD50
# measurementDescription: carcinogenic potency in animals, long-term in vivo studies, CPDB compilation (AID 1745844)
# assayContext: mouse; strain B6C3F1; females; in feed; site: forestomach; lesion: sarcoma; dosed 96 weeks; study length 96 weeks
experimentalReadout: TD50
Include the unit after the number when you answer.

Inquiry: Recorded TD50 of `Oc1ccc2c(c1)OCO2` , please.
Reply text: 44800 mg/kg/day

* * *

# Test system: rodent lifetime carcinogenesis bioassay, tumor incidence TD50
# measurementDescription: carcinogenic potency in animals, long-term in vivo studies, CPDB compilation (AID 1745844)
# assayContext: rat; strain Fischer 344; males; in feed; site: liver; lesion: angiosarcoma; dosed 98 weeks; study length 104 weeks
experimentalReadout: TD50

Inquiry: Recorded TD50 of `C/C=C(/C)C(=O)O[C@H]1CCN2CC=C(COC(=O)[C@@](O)([C@H](C)OC)C(C)(C)O)[C@H]12` , please.
Reply text: 0.355 mg/kg/day

* * *

# Test system: rodent lifetime carcinogenesis bioassay, tumor incidence TD50
# measurementDescription: carcinogenic potency in animals, long-term in vivo studies, CPDB compilation (AID 1745844)
# assayContext: rat; strain Charles River CD (Sprague-Dawley); females; in feed; site: adrenal gland; lesion: cortical adenoma; dosed 104 weeks; study length 104 weeks
experimentalReadout: TD50 (mg/kg/day)
Reply with just the number (in mg/kg/day).

Inquiry: Recorded TD50 of `O=P(OC(CCl)CCl)(OC(CCl)CCl)OC(CCl)CCl` , please.
Reply text: 192

* * *

# Test system: rodent lifetime carcinogenesis bioassay, tumor incidence TD50
# measurementDescription: carcinogenic potency in animals, long-term in vivo studies, CPDB compilation (AID 1745844)
# assayContext: rat; strain Fischer 344; males; in drinking water; site: pancreas, exocrine; lesion: adenocarcinoma, acinar or ductal; dosed 118 weeks; study length 128 weeks
experimentalReadout: TD50
Include the unit after the number when you answer.

Inquiry: Recorded TD50 of `CN(CCCC(=O)c1cccnc1)N=O` , please.
Reply text: 6.93 mg/kg/day

* * *

# System: rodent lifetime carcinogenesis bioassay, tumor incidence TD50
# measurementDescription: carcinogenic potency in animals, long-term in vivo studies, CPDB compilation (AID 1745844)
# assayContext: rat; strain F344/DuCrj; females; in drinking water; site: esophagus; lesion: papilloma; dosed 97 weeks; study length 112 weeks
experimentalReadout: TD50

Inquiry: Recorded TD50 of `CCOC(=O)N(CC)N=O` , please.
Reply text: 0.514 mg/kg/day

* * *

# Test system: rodent lifetime carcinogenesis bioassay, tumor incidence TD50
# measurementDescription: carcinogenic potency in animals, long-term in vivo studies, CPDB compilation (AID 1745844)
# assayContext: rat; strain Fischer 344; males; in feed; site: urinary bladder; lesion: leiomyosarcoma + leiomyoma; dosed 103 weeks; study length 104 weeks
experimentalReadout: TD50

Inquiry: rodent lifetime carcinogenesis bioassay, tumor incidence TD50 / TD50 / `Nc1ccc(N)c2c1C(=O)c1c(N)ccc(N)c1C2=O` : value?
Reply text: 129 mg/kg/day

* * *

# System: rodent lifetime carcinogenesis bioassay, tumor incidence TD50
# measurementDescription: carcinogenic potency in animals, long-term in vivo studies, CPDB compilation (AID 1745844)
# assayContext: rat; strain Fischer 344; females; by gavage; site: lung; lesion: several types; types named in the paper; dosed 130 weeks; study length 130 weeks
experimentalReadout: TD50

Inquiry: Recorded TD50 of `CN(CCCO)N=O` , please.
Reply text: 8.06 mg/kg/day

* * *

# Tested on: rodent lifetime carcinogenesis bioassay, tumor incidence TD50
# measurementDescription: carcinogenic potency in animals, long-term in vivo studies, CPDB compilation (AID 1745844)
# assayContext: mouse; strain Swiss albino; females; in drinking water; site: blood vessels; lesion: several types; types named in the paper; dosed 111 weeks; study length 111 weeks
experimentalReadout: TD50

Inquiry: rodent lifetime carcinogenesis bioassay, tumor incidence TD50 / TD50 / `CC(=O)NNc1ccccc1` : value?
Reply text: 49 mg/kg/day

* * *

# Tested on: rodent lifetime carcinogenesis bioassay, tumor incidence TD50
# measurementDescription: carcinogenic potency in animals, long-term in vivo studies, CPDB compilation (AID 1745844)
# assayContext: rat; strain F344/DuCrj; females; in drinking water; site: uterus; lesion: endometrial stromal polyp; dosed 104 weeks; study length 112 weeks
Activity calls are given as the source filed them. No rule for the calls is given here.
experimentalReadout: TD50

Inquiry: rodent lifetime carcinogenesis bioassay, tumor incidence TD50 / TD50 / O=C(O)C1=NN(c2ccc(S(=O)(=O)O)cc2)C(=O)C1N=Nc1ccc(S(=O)(=O)O)cc1 (stereo unspecified) : value?
Reply text: 5780 mg/kg/day (inactive)

* * *

# Test system: rodent lifetime carcinogenesis bioassay, tumor incidence TD50
# measurementDescription: carcinogenic potency in animals, long-term in vivo studies, CPDB compilation (AID 1745844)
# assayContext: rat; strain IcoIbm:OFA (Sprague-Dawley derived); females; inhaled; site: nasal cavity, olfactory epithelium; lesion: neuroblastoma; dosed 102 weeks; study length 102 weeks
experimentalReadout: TD50

Inquiry: Recorded TD50 of `COc1ccc(C(=O)Nc2c(Cl)cncc2Cl)cc1OC1CCCC1` , please.
Reply text: 1.68 mg/kg/day

* * *

# Tested on: rodent lifetime carcinogenesis bioassay, tumor incidence TD50
# measurementDescription: carcinogenic potency in animals, long-term in vivo studies, CPDB compilation (AID 1745844)
# assayContext: rat; strain Alpk:APfSD; males; in feed; site: pancreas, exocrine; lesion: adenoma; dosed 52 weeks; study length 104 weeks
experimentalReadout: TD50
Include the unit after the number when you answer.

Inquiry: Recorded TD50 of `COC(=O)C(C)(C)Oc1ccc(-c2ccc(Cl)cc2)cc1` , please.
Reply text: 1.44 mg/kg/day

* * *

# Tested on: rodent lifetime carcinogenesis bioassay, tumor incidence TD50
# measurementDescription: carcinogenic potency in animals, long-term in vivo studies, CPDB compilation (AID 1745844)
# assayContext: rat; strain Charles River CD (Sprague-Dawley); males; in drinking water; site: liver; lesion: neoplastic nodule; dosed 104 weeks; study length 104 weeks
Activity calls are given as the source filed them. No rule for the calls is given here.
experimentalReadout: TD50

Inquiry: Recorded TD50 of `CCO` , please.
Reply text: 84800 mg/kg/day (inactive)

* * *

# Test system: rodent lifetime carcinogenesis bioassay, tumor incidence TD50
# measurementDescription: carcinogenic potency in animals, long-term in vivo studies, CPDB compilation (AID 1745844)
# assayContext: rat; strain Fischer 344; males; in feed; site: skin; lesion: trichoepithelioma; dosed 103 weeks; study length 104 weeks
experimentalReadout: TD50

Inquiry: Recorded TD50 of `N=C1C=CC(=C(c2ccc(N)cc2)c2ccc(N)cc2)C=C1` , please.
Reply text: 221 mg/kg/day

* * *

# Tested on: rodent lifetime carcinogenesis bioassay, tumor incidence TD50
# measurementDescription: carcinogenic potency in animals, long-term in vivo studies, CPDB compilation (AID 1745844)
# assayContext: rat; strain Sprague-Dawley; males; in feed; site: thyroid gland; lesion: follicular-cell adenoma; dosed 104 weeks; study length 104 weeks
experimentalReadout: TD50 (mg/kg/day)
Reply with just the number (in mg/kg/day).

{"columns": ["sampleSmiles", "testedTarget", "endpointUnit", "TD50"],
 "data": [
  ["Clc1cccc(-c2ccc(Cl)c(Cl)c2Cl)c1Cl", "rodent lifetime carcinogenesis bioassay, tumor incidence TD50", "mg/kg/day", 20.2]
]}

Inquiry: rodent lifetime carcinogenesis bioassay, tumor incidence TD50 / TD50 / `Clc1ccc(-c2ccc(Cl)c(Cl)c2Cl)c(Cl)c1Cl` : value?
Reply text: 11.4

* * *

# System: rodent lifetime carcinogenesis bioassay, tumor incidence TD50
# measurementDescription: carcinogenic potency in animals, long-term in vivo studies, CPDB compilation (AID 1745844)
# assayContext: rat; strain Fischer 344; females; by gavage; site: thyroid gland; lesion: follicular-cell carcinoma; dosed 104 weeks; study length 104 weeks
experimentalReadout: TD50 (mg/kg/day)
Reply with just the number (in mg/kg/day).

Inquiry: rodent lifetime carcinogenesis bioassay, tumor incidence TD50 / TD50 / `O=P(OCCCl)(OCCCl)OCCCl` : value?
Reply text: 280

* * *

# System: rodent lifetime carcinogenesis bioassay, tumor incidence TD50
# measurementDescription: carcinogenic potency in animals, long-term in vivo studies, CPDB compilation (AID 1745844)
# assayContext: rat; strain Cb/Sc; females; by gavage; site: lung; lesion: several types; types named in the paper; dosed 68 weeks; study length 94 weeks
experimentalReadout: TD50

Inquiry: Recorded TD50 of `O=S(=O)(O)O` , please.
Reply text: 42.4 mg/kg/day

* * *

# Test system: rodent lifetime carcinogenesis bioassay, tumor incidence TD50
# measurementDescription: carcinogenic potency in animals, long-term in vivo studies, CPDB compilation (AID 1745844)
# assayContext: rat; strain Fischer 344; males; in feed; site: thyroid gland; lesion: c-cell adenoma; dosed 103 weeks; study length 104 weeks
experimentalReadout: TD50 (mg/kg/day)
Reply with just the number (in mg/kg/day).

Inquiry: rodent lifetime carcinogenesis bioassay, tumor incidence TD50 / TD50 / `Nc1ccc(N)c2c1C(=O)c1c(N)ccc(N)c1C2=O` : value?
Reply text: 529
